Data origin: patent US4077999A

# Protocol: in vivo
# Study conditions: oral administration, Table II, read-out: LD50 p.o.
List of LD50 values.
Could you give me the number in mg/kg? Just the number is fine.

Guide cases for LD50, answers given:
COc1ccc(Cc2nccc3cc(OC)c(OC)cc23)cc1OC [Papaverine, reference compound]; 367
COc1ccc(C=C2CCCCCC2=NOCCCN(C)C)cc1; 1000
CN(C)CCCON=C1CCCCCC1=Cc1ccccc1; 550

Task: Which measured LD50 value corresponds to `CC(C)N(CCON=C1CCCCCC1=Cc1ccccc1)C(C)C` ?
Output: 325

Task: Sample COc1ccccc1C=C1CCCCC1=NOCC(C)CN(C)C (centres unmarked) — what was its LD50?
Output: 650
